Attribution: patent US11229205B2

System: Echinochloa crus-galli (ECHCG)
assay_notes: Post-emergence herbicidal activity (B2)
Type: in vivo
condition_details: Test B2b; post-emergence application; rate 1000 g/ha; evaluated after 13 days; score 0-5
Recorded damage to plant, ECHCG by entry

Previously resolved entries follow.
- test_smiles: "Nc1ncc(-c2cncc(F)c2)nc1OCc1ccccc1"
  damage to plant, ECHCG: 1
- test_smiles: "CCCNc1ncc(-c2cncc(F)c2)nc1C(F)(F)F"
  damage to plant, ECHCG: 4

Ask | Could you please provide reported damage to plant, ECHCG for `Nc1ncc(-c2cncnc2)nc1C(F)(F)F` ? Thanks!
Reply | 3

Ask | Tell me damage to plant, ECHCG reported for `C=C(C)c1nc(-c2cncc(F)c2)cnc1N`
Reply | 1

----------
damage to plant, AVEFA reference
Test system: Avena fatua (AVEFA)
assay_notes: Post-emergence herbicidal activity (B2)
Assay type: in vivo
condition_details: Test B2b; post-emergence application; rate 1000 g/ha; evaluated after 13 days; score 0-5
// return just the number, without any unit appended

Here are 8 molecules together with their reported answers.
- molecule: "OCNc1ncc(-c2cncc(F)c2)nc1C(F)(F)F [Compound G12]"
  endpoint: "damage to plant, AVEFA"
  reading: 5
- molecule: "COc1nc(-c2cncc(F)c2)cnc1N [Compound G5]"
  endpoint: "damage to plant, AVEFA"
  reading: 1
- molecule: "Cc1nc(-c2cncc(F)c2)cnc1N [Compound G4]"
  endpoint: "damage to plant, AVEFA"
  reading: 1
- molecule: "Nc1ncc(-c2cncc(F)c2)nc1OCc1ccccc1 [Compound G11]"
  endpoint: "damage to plant, AVEFA"
  reading: 1
- molecule: "CC(C)c1nc(-c2cncc(F)c2)cnc1N [Compound G15]"
  endpoint: "damage to plant, AVEFA"
  reading: 0
- molecule: "CNc1ncc(-c2cncc(F)c2)nc1C [Compound G17]"
  endpoint: "damage to plant, AVEFA"
  reading: 0
- molecule: "CCCNc1ncc(-c2cncc(F)c2)nc1C(F)(F)F [Compound G23]"
  endpoint: "damage to plant, AVEFA"
  reading: 1
- molecule: "C=C(C)c1nc(-c2cncc(F)c2)cnc1N [Compound G14]"
  endpoint: "damage to plant, AVEFA"
  reading: 1

Ask | For Nc1ncc(-c2cncnc2)nc1OCc1ccccc1 [Compound G10] , write its damage to plant, AVEFA.
Reply | 0

Ask | Provide damage to plant, AVEFA value for the following molecule: Nc1ncc(-c2cncc(F)c2)nc1Br [Compound G8]
Reply | 0

Ask | For C[Si](C)(C)C#Cc1nc(-c2cncc(F)c2)cnc1N [Compound G20] , write its damage to plant, AVEFA.
Reply | 1

Ask | Complete the entry with damage to plant, AVEFA for Nc1ncc(-c2cncc(F)c2)nc1C(F)(F)F [Compound G3]
Reply | 3

Ask | Report measured damage to plant, AVEFA; entry is N#Cc1nc(-c2cncc(F)c2)cnc1N [Compound G7]
Reply | 1

Ask | Using known records, supply damage to plant, AVEFA for C=Cc1nc(-c2cncc(F)c2)cnc1N [Compound G18]
Reply | 1

----------
# damage to plant, LOLPE annotations
Tested on: Lolium perenne (LOLPE)
assay_notes: Pre-emergence herbicidal activity (B1)
Format: in vivo
condition_details: Test 1b; pre-emergence application; rate 1000 g/ha; evaluated after 13 days; score 0-5
Method: Seeds of a variety of test species were sown in standard soil in pots: Triticum aestivium (TRZAW), Avena fatua (AVEFA), Alopecurus myosuroides (ALOMY), Echinochloa crus-galli (ECHCG), Lolium perenne (LOLPE), Zea Mays (ZEAMX), Abutilon theophrasti (ABUTH), Amaranthus retroflexus (AMARE) and Setaria faberi (SETFA). […] After 13 days, the test was evaluated (5=total damage to plant; 0=no damage to plant).
# respond with the number and nothing more

Ask | Please list damage to plant, LOLPE recorded for the compound `C=Cc1nc(-c2cncc(F)c2)cnc1N`
Reply | 0

Ask | Give me measured damage to plant, LOLPE, please, for this compound: `Nc1ncc(-c2cncc(F)c2)nc1OCc1ccccc1`
Reply | 0

Ask | State, in one line, measured damage to plant, LOLPE of `OCNc1ncc(-c2cncc(F)c2)nc1C(F)(F)F`
Reply | 0

Ask | Tell us which damage to plant, LOLPE value is on record for `Nc1ncc(-c2cncnc2)nc1C(F)(F)F`
Reply | 0

Ask | Give recorded damage to plant, LOLPE. `Nc1ncc(-c2cncc(F)c2)nc1C(F)(F)F`
Reply | 0

----------
Tested on: Setaria faberi (SETFA)
assay_notes: Post-emergence herbicidal activity (B2)
Type: in vivo
condition_details: Test B2b; post-emergence application; rate 1000 g/ha; evaluated after 13 days; score 0-5
endpoint: damage to plant, SETFA

- test_smiles: "CCc1nc(-c2cncc(F)c2)cnc1N"
  reading: 3
- test_smiles: "Nc1ncc(-c2cncc(F)c2)nc1OCc1ccccc1"
  reading: 1
- test_smiles: "Nc1ncc(-c2cncnc2)nc1OCc1ccccc1"
  reading: 1
- test_smiles: "COc1nc(-c2cncc(F)c2)cnc1N"
  reading: 3
- test_smiles: "Nc1ncc(-c2cncc(F)c2)nc1Br"
  reading: 1

Ask | Fill in damage to plant, SETFA for record `C[Si](C)(C)C#Cc1nc(-c2cncc(F)c2)cnc1N`
Reply | 0

Ask | Check the records and state damage to plant, SETFA for `N#Cc1nc(-c2cncc(F)c2)cnc1N`
Reply | 2

----------
Tested on: Echinochloa crus-galli (ECHCG)
assay_notes: Post-emergence herbicidal activity (B2)
Type: in vivo
condition_details: Test B2b; post-emergence application; rate 1000 g/ha; evaluated after 13 days; score 0-5
damage to plant, ECHCG values, listed per item
Answer with a bare number; do not write a unit.

Ask | System Echinochloa crus-galli (ECHCG). Read-out damage to plant, ECHCG. Item `Cc1nc(-c2cncc(F)c2)cnc1N(C)C` . Report value.
Reply | 1

Ask | Under Echinochloa crus-galli (ECHCG), report damage to plant, ECHCG for `Cc1nc(-c2cncc(F)c2)cnc1N`
Reply | 2

Ask | System Echinochloa crus-galli (ECHCG). Read-out damage to plant, ECHCG. Item `Nc1ncc(-c2cncc(F)c2)nc1Br` . Report value.
Reply | 2

Ask | # assay system Echinochloa crus-galli (ECHCG): give damage to plant, ECHCG of `N#Cc1nc(-c2cncc(F)c2)cnc1N`
Reply | 3

Ask | // output damage to plant, ECHCG; input `CC(C)c1nc(-c2cncc(F)c2)cnc1N` ; system Echinochloa crus-galli (ECHCG)
Reply | 1

Ask | Report damage to plant, ECHCG under test system Echinochloa crus-galli (ECHCG) for `C[Si](C)(C)C#Cc1nc(-c2cncc(F)c2)cnc1N` .
Reply | 0

Ask | Provide damage to plant, ECHCG, system Echinochloa crus-galli (ECHCG), entry `CCOC(=O)c1nc(-c2cncnc2)cnc1N`
Reply | 1

----------
System: Echinochloa crus-galli (ECHCG)
assay_notes: Post-emergence herbicidal activity (B2)
Assay type: in vivo
condition_details: Test B2b; post-emergence application; rate 1000 g/ha; evaluated after 13 days; score 0-5
List of damage to plant, ECHCG values.
Enter a number only.

Check out these entries, answers already filled in.
- test_smiles: "CCc1nc(-c2cncc(F)c2)cnc1N"
  reading: 2
- test_smiles: "C=Cc1nc(-c2cncc(F)c2)cnc1N"
  reading: 1
- test_smiles: "COc1nc(-c2cncc(F)c2)cnc1N"
  reading: 2
- test_smiles: "Nc1ncc(-c2cncc(F)c2)nc1C(F)(F)F"
  reading: 4
- test_smiles: "CNc1ncc(-c2cncc(F)c2)nc1C"
  reading: 1
- test_smiles: "OCNc1ncc(-c2cncc(F)c2)nc1C(F)(F)F"
  reading: 2

Proceeding to the next compound to report its damage to plant, ECHCG.
Ask | Supply reported damage to plant, ECHCG belonging to this compound: `Nc1ncc(-c2cncnc2)nc1OCc1ccccc1`
Reply | 1

----------
Listing of entries alongside the reported damage to plant, LOLPE.
Test system: Lolium perenne (LOLPE)
assay_notes: Pre-emergence herbicidal activity (B1)
Assay type: in vivo
condition_details: Test 1b; pre-emergence application; rate 1000 g/ha; evaluated after 13 days; score 0-5
Note: the reply should be a number with no unit written.

Known results for compounds:
- test_smiles: "CCCNc1ncc(-c2cncc(F)c2)nc1C(F)(F)F"
  tested_system: "Lolium perenne (LOLPE)"
  endpoint: "damage to plant, LOLPE"
  reading: 1
- test_smiles: "N#Cc1nc(-c2cncc(F)c2)cnc1N"
  tested_system: "Lolium perenne (LOLPE)"
  endpoint: "damage to plant, LOLPE"
  reading: 0

Ask | Output damage to plant, LOLPE of `Cc1nc(-c2cncc(F)c2)cnc1N(C)C`
Reply | 0

Ask | Supply recorded damage to plant, LOLPE for `C=C(C)c1nc(-c2cncc(F)c2)cnc1N` here.
Reply | 0

Ask | Given `C[Si](C)(C)C#Cc1nc(-c2cncc(F)c2)cnc1N` , respond with its damage to plant, LOLPE.
Reply | 0

Ask | Could you please provide reported damage to plant, LOLPE for `Cc1nc(-c2cncc(F)c2)cnc1N` ? Thanks!
Reply | 0

Ask | For `COc1nc(-c2cncc(F)c2)cnc1N` , write its damage to plant, LOLPE.
Reply | 0

Ask | For `Nc1ncc(-c2cncnc2)nc1OCc1ccccc1` , write its damage to plant, LOLPE.
Reply | 0

Ask | Please look at this compound and report its damage to plant, LOLPE: `CNc1ncc(-c2cncc(F)c2)nc1C`
Reply | 0

Ask | Identify damage to plant, LOLPE associated with the compound `CCOC(=O)c1nc(-c2cncnc2)cnc1N`
Reply | 0

Ask | Let me know recorded damage to plant, LOLPE for `CCc1nc(-c2cncc(F)c2)cnc1N` , thanks.
Reply | 1

Ask | Please indicate damage to plant, LOLPE recorded for `CC(C)c1nc(-c2cncc(F)c2)cnc1N`
Reply | 2

Ask | Given the compound `Nc1ncc(-c2cncc(F)c2)nc1Br` , write its reported damage to plant, LOLPE.
Reply | 0
